experiment description: chemical genetic growth profiling, strain panel (AID 1159580);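 further: tested at 20 µM; growth read once vehicle control cultures reached saturation at 30 °C; 1 = growth at the plate median or of vehicle wells; lower values mean less growth of the strain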
particulars: S. cerevisiae deletion strains, growth OD, locus YDR150W, strain NUM1, stronger effect = lower value
The campaign covered roughly 5,500 compounds. About 2,000 (36%) were called active. Not shown: some 18% with an inconclusive outcome. This is one part of the list.
We begin with a simple list: items and their reported normalized growth.

| compound | normalized growth |
| --- | --- |
| C[C@]12CC[C@@H]3c4ccc(O)cc4CC[C@H]3[C@@H]1CCC2=O | 1 (inactive) |
| Cc1c(C)c(C)c(CSc2nc3ccccc3[nH]2)c(C)c1C | 1.02 (inactive) |
| N#Cc1cccc(CSC2=NCN(C3CC3)CN2)c1 | 0.934 (inactive) |
| CC(=O)Oc1ccc2c(c1)CCC1C2CC[C@]2(C)C(=O)CCC12 (stereo partly specified) | 0.994 (inactive) |
| O=S(=O)(NCC1CC1)c1ccc(F)c(Cl)c1 | 0.945 (inactive) |
| Cc1oncc1C(=O)Nc1ccc(C(F)(F)F)cc1 | 1.01 (inactive) |
| CC(C)=CC1C(C(=O)OCc2cccc(Oc3ccccc3)c2)C1(C)C (stereo unspecified) | 0.993 (inactive) |
| Fc1ccc([C@@H]2CCNC[C@H]2COc2ccc3c(c2)OCO3)cc1 | 1 (inactive) |
| O=S(=O)(NCc1ccc2c(c1)OCO2)c1ccc(F)c(Cl)c1 | 0.913 (inactive) |
| C[C@]12CCC3c4ccc(OC(=O)CCC(=O)O)cc4CCC3C1CCC2=O (stereo partly specified) | 0.998 (inactive) |
| CC(=O)OC1CC(O)C(C)(C)C2CC(=O)C3(C)C(CCC4(C)C(c5ccoc5)OC(=O)C5OC543)C12C (stereo unspecified) | 1.01 (inactive) |

====

experiment description: chemical genetic growth profiling, strain panel (AID 1159580);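 further: tested at 20 µM; growth read once vehicle control cultures reached saturation at 30 °C; 1 = growth at the plate median or of vehicle wells; lower values mean less growth of the strain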
particulars: S. cerevisiae deletion strains, growth OD, locus YHR079C, strain IRE1 (second series)
Out of some 5,500 compounds screened, about 2,000 (36%) were called active. Not shown: some 18% with an inconclusive outcome. Cut-off read from the data, not from the text of the source: active = normalized growth mostly below about 0.91 (no sharp cut-off); inconclusive = no clear call, values can overlap the other calls; inactive = mostly above about 0.92. The list shows a part of the results.
Labels: true for active, false for inactive

| compound | cat |
| --- | --- |
| CC(C)(S)[C@@H](N)C(=O)O | false |
| CC(=O)OC1CC(O)C(C)(C)C2CC(=O)C3(C)C(CCC4(C)C(c5ccoc5)OC(=O)C5OC543)C12C (stereo unspecified) | false |
| Cc1cccc(C)c1NC(=O)C1CCCCN1C (stereo unspecified) | false |
| COc1ccc(-c2cc(=O)c3c(OC)cc(OC)cc3o2)cc1 | false |
| CC(=O)O[C@]1(C)CC[C@@]23CC1C(C)(C)[C@@H]2CC[C@H]3C | false |
| COc1cc(OC)c2c(=O)cc(-c3ccccc3)oc2c1 | true |
| O=c1oc2ccccc2cc1O | false |
| Cc1cc(/C=C/c2ccc3cc(N(C)C)ccc3[n+]2C)c(C)n1-c1ccccc1 | false |
| O=C(O)C(O)C(O)C(=O)O (stereo unspecified) | false |
| CN=C(N)NCCCC(N)C(=O)O (stereo unspecified) | false |
| CC(C)c1nc(N(C)S(C)(=O)=O)nc(-c2ccc(F)cc2)c1/C=C/[C@@H](O)C[C@@H](O)CC(=O)O | false |

====

We begin with a simple list: items and their reported normalized growth.
experiment description: chemical genetic growth profiling, strain panel (AID 1159580);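 further: tested at 20 µM; growth read once vehicle control cultures reached saturation at 30 °C; 1 = growth at the plate median or of vehicle wells; lower values mean less growth of the strain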
particulars: S. cerevisiae deletion strains, growth OD, locus YKL085W, strain MDH1 (second series), stronger effect = lower value
The whole screen tested about 5,500 compounds, of which about 2,000 (36%) were called active. Roughly 18% stayed inconclusive and do not appear here. The list shows a part of the results. Where a SMILES comes first, the peptide text is derived from it.
measurement name: normalized growth

| compound | measurement name | reading |
| --- | --- | --- |
| COc1c(C)c2c(c(O)c1C/C=C(\C)CCC(=O)O)C(=O)OC2 | normalized growth | 0.279 |
| CC(=O)N[C@@H](CC(=O)O)C(=O)N[C@@H](CCC(=O)O)C(=O)O (Ac-Asp-Glu-OH) | normalized growth | 0.985 |
| CC(=O)OCC(=O)[C@@]1(O)CCC2C3CCC4=CC(=O)C=CC4(C)C3[C@@H](O)C[C@@]21C (stereo not given in full) | normalized growth | 1.01 |
| O=NN(CCCl)C(=O)NCCCl | normalized growth | 0.994 |
| NC(N)=NCCCCN=C(N)N | normalized growth | 1.03 |
| CC(C)=CC1C(C(=O)OCc2cccc(Oc3ccccc3)c2)C1(C)C (stereo not given) | normalized growth | 1 |
| CCCn1c(=O)c2[nH]c(C3CCCC3)nc2n(CCC)c1=O | normalized growth | 0.994 |
| CC1[C@H](C)OC(=O)CC(O)CC(O)CC(O)CCC(O)C(O)C[C@]2(O)CC(O)C(C(=O)O)C(CC(OC3O[C@H](C)[C@@H](O)[C@H](N)[C@@H]3O)/C=C/C=C/C=C/C=C/CC/C=C/C=C/[C@H](C)[C@H]1O)O2 (stereo not given in full) | normalized growth | 0.0538 |
| NC(C(=O)O)C(O)C(=O)O (stereo not given) | normalized growth | 0.999 |
| O=C(O)C(O)C(O)C(O)C(O)C(=O)O (stereo not given) | normalized growth | 0.983 |
| NC(N)=NCCN1CCCCCCC1 | normalized growth | 1.01 |
| O=C1CCCN1CC#CCN1CCCC1 | normalized growth | 1.02 |
| CN1CCC[C@@H]1CCO[C@](C)(c1ccccc1)c1ccc(Cl)cc1 | normalized growth | 0.995 |
| NCCCCC(=O)O | normalized growth | 1.04 |
| COc1cc(C)c2c(=O)cc(-c3ccccc3)oc2c1 | normalized growth | 0.965 |
| COc1ccc(CCC(=O)c2c(O)cc(O[C@@H]3O[C@H](CO)C(O)[C@H](O)C3O[C@@H]3O[C@@H](C)[C@H](O)[C@@H](O)[C@H]3O)cc2O)cc1O (stereo not given in full) | normalized growth | 0.982 |
| CC12CCC3C(=CCc4cc(O)ccc43)C1CCC2=O (stereo not given) | normalized growth | 0.98 |
| CC(C)c1nc(N(C)S(C)(=O)=O)nc(-c2ccc(F)cc2)c1/C=C/[C@@H](O)C[C@@H](O)CC(=O)O | normalized growth | 0.992 |
| CCCCCCCCCCCCCC(=O)OC1C(C)C2(O)C(C=C(CO)CC3(O)C(=O)C(C)=CC32)C2C(C)(C)C12OC(C)=O (stereo not given) | normalized growth | 0.966 |
| FC(F)(F)c1cccc(N2CCNCC2)c1 | normalized growth | 0.995 |
| CN(C)CCC(c1ccccc1)c1ccccn1 (stereo not given) | normalized growth | 1.01 |
| CC(=O)NCCc1c[nH]c2ccc(O)cc12 | normalized growth | 0.982 |
| NCCCCNCCCN | normalized growth | 0.985 |
| CCC(=O)OC1[C@@H]2CC3=C4CC(=O)O[C@@H](c5ccoc5)[C@]4(C)CCC3[C@@](C)(C2=O)[C@@H](CC(=O)OC)C1(C)C (stereo not given in full) | normalized growth | 1 |
| O=C(O)COc1ccc(Cl)cc1Cl | normalized growth | 1.01 |
| CC(C)(S)[C@@H](N)C(=O)O | normalized growth | 0.993 |
| CNc1ccc(C(=O)CC(O)CCC(C)C2OC(=O)CC(O)CC(=O)CC(O)CC(O)CC(O)CC(O)CC3(O)CC(O)C(C(=O)OC)C(CC(OC4OC(C)C(O)C(N)C4O)/C=C/C=C/C=C/C=C/C=C/C=C/C=C/C2C)O3)cc1 (stereo not given) | normalized growth | 0.0497 |
| COc1ccc2c(=O)c(OC)c(-c3ccccc3)oc2c1 | normalized growth | 0.974 |
| C[C@@H]1CC[C@H]2C(C)(C)C3CC12CC[C@@]3(C)O (stereo not given in full) | normalized growth | 0.961 |
| COC1C=CC23c4cc5c(cc4CN(CC2O)[C@@H]3C1)OCO5 (stereo not given in full) | normalized growth | 1.01 |
| CN[C@@H]1C(OC2[C@H](O[C@H]3[C@H](O)[C@@H](O)[C@H](N=C(N)N)[C@@H](O)[C@@H]3N=C(N)N)OC(C)[C@]2(O)CO)OC(CO)C(O)C1O (stereo not given in full) | normalized growth | 1.01 |
| O=c1[nH]c(=O)n(C2C[C@H](O)[C@@H](CO)O2)cc1C(F)(F)F (stereo not given in full) | normalized growth | 0.974 |
| NCCCCCC(=O)O | normalized growth | 1.01 |
| C=NC(C(=O)NC1C(=O)N2C1SC(C)(C)C2C(=O)O)c1ccccc1 (stereo not given) | normalized growth | 1.04 |
| CC(=O)Oc1ccc2c(c1)CCC1C2CC[C@]2(C)C(=O)CCC12 (stereo not given in full) | normalized growth | 1 |
